# Read-out: Interleukin-1 alpha (IL1a), IL1A (gene 3552)
# Assay comment: BSK_LPS_IL1a: BioMAP Diversity Plus: LPS Assay for Interleukin-1 alpha (IL1a) Biomarker Activity (AID 2283080)
# Study conditions: primary human HUVEC with PBMC; actives raise or lower the signal
The source made the active and inactive calls. How the source made its calls: active means hit-call score of the fitted dose curve at least 0.9, where 1 is the maximum; inactive means score below 0.9.
Outcomes: active, inactive

[
  {
    "Molecule": "NC(=O)C(F)(F)C(F)(F)C(F)(F)C(F)(F)C(N)=O",
    "Assigned label": "inactive"
  },
  {
    "Molecule": "O=C1C=CC(=O)N1c1ccc(Cc2ccc(N3C(=O)C=CC3=O)cc2)cc1",
    "Assigned label": "active"
  },
  {
    "Molecule": "Cc1ccc(S(=O)(=O)C(I)I)cc1",
    "Assigned label": "active"
  },
  {
    "Molecule": "CCN(CC)c1ccc(C=O)c(O)c1",
    "Assigned label": "inactive"
  },
  {
    "Molecule": "O=S(=O)(Cl)C(F)(F)C(F)(F)C(F)(F)C(F)(F)C(F)(F)C(F)(F)C(F)(F)C(F)(F)F",
    "Assigned label": "inactive"
  },
  {
    "Molecule": "CO[Si](C)(CCC(F)(F)C(F)(F)C(F)(F)C(F)(F)C(F)(F)C(F)(F)F)OC",
    "Assigned label": "inactive"
  },
  {
    "Molecule": "CC1=CC2C3C=CC(C3)C2C1C (configuration not stated)",
    "Assigned label": "inactive"
  }
]

###

# Target system: Hepatocyte nuclear factor 6 (Homo sapiens) (UniProt Q9UBC0)
# Sequence (Q9UBC0 whole entry, looked up): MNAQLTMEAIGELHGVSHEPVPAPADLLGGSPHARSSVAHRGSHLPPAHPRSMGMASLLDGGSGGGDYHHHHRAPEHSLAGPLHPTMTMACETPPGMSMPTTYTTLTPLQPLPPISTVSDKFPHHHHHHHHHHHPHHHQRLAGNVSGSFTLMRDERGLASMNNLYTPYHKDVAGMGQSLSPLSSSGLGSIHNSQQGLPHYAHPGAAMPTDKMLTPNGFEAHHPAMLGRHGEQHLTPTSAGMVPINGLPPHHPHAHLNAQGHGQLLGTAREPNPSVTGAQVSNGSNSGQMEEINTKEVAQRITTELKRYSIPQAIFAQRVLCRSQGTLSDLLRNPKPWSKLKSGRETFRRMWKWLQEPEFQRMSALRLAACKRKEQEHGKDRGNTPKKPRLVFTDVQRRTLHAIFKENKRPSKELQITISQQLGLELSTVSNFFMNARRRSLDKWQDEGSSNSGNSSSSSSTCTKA
# Assay comment: ATG_HNF6_CIS: Attagene CIS-FACTORIAL HepG2 Assay for human Hepatocyte Nuclear Factor 6 (HNF6) (AID 2282952)
# Study conditions: HepG2 Attagene cis-factorial HNF6 reporter transcription; actives raise or lower the signal
Calls of active or inactive are those of the source. The calls were made as follows: active = hit-call score of the fitted dose curve at least 0.9, where 1 is the maximum; inactive = score below 0.9.
Measured quantity: outcome

[
  {
    "Compound": "CCN=C1C=CC(=C(c2ccc(N(CC)CC)cc2)c2ccc(N(CC)CC)cc2)c2ccccc21",
    "Measured quantity": "outcome",
    "Observed measurement": "inactive"
  },
  {
    "Compound": "C#CC(O)CCC (stereo not drawn)",
    "Measured quantity": "outcome",
    "Observed measurement": "inactive"
  },
  {
    "Compound": "CN(C)C(C)(C)CO",
    "Measured quantity": "outcome",
    "Observed measurement": "inactive"
  }
]

###

# Read-out: Thrombomodulin, THBD (gene 7056)
# Assay comment: BSK_3C_Thrombomodulin: BioMAP Diversity Plus: 3C Assay for Thrombomodulin Biomarker Activity (AID 2283029)
# Study conditions: primary human endothelial cells (HUVEC); actives raise or lower the signal
# Description: BSK_3C is a cell-based, multiplexed-readout assay that uses umbilical vein endothelium, a human vascular primary cell, with measurements taken at 24 hours after chemical dosing in a 96-well plate.BSK_3C_Thrombomodulin is an assay component measured in the BSK_3C assay. It measures Thrombomodulin antibody related to regulation of gene expression using ELISA technology.Data from the assay component BSK_3C_Thrombomodulin was analyzed into 1 assay endpoint. […]
Calls of active or inactive are those of the source. The calls were made as follows: active = hit-call score of the fitted dose curve at least 0.9, where 1 is the maximum; inactive = score below 0.9.
Outcomes: active, inactive

[
  {
    "Compound": "O=C=Nc1cccc2c(N=C=O)cccc12",
    "Assigned label": "inactive"
  },
  {
    "Compound": "Nc1cc([N+](=O)[O-])cc(Cl)c1O",
    "Assigned label": "inactive"
  },
  {
    "Compound": "OCC(F)(F)C(F)(F)C(F)(F)C(F)(F)C(F)(F)C(F)(F)CO",
    "Assigned label": "inactive"
  },
  {
    "Compound": "OCC(O)CC(F)(F)C(F)(F)C(F)(F)C(F)(F)F (centres undefined)",
    "Assigned label": "inactive"
  },
  {
    "Compound": "CC1=CC2C3C=CC(C3)C2C1C (centres undefined)",
    "Assigned label": "inactive"
  },
  {
    "Compound": "Cc1ccc(S(=O)(=O)C(I)I)cc1",
    "Assigned label": "active"
  },
  {
    "Compound": "NC(O)(C(F)(F)F)C(F)(F)F",
    "Assigned label": "inactive"
  },
  {
    "Compound": "C[C@]12CC[C@H]3C(=CCc4cc(O)ccc43)[C@@H]1CCC2=O",
    "Assigned label": "inactive"
  },
  {
    "Compound": "O=C(O)C(F)(F)OC(F)(F)C(F)(F)OC(F)(F)C(F)(F)OC(F)(F)F",
    "Assigned label": "inactive"
  },
  {
    "Compound": "OCC(F)(F)C(F)(F)C(F)(F)CO",
    "Assigned label": "inactive"
  },
  {
    "Compound": "O=S(=O)(O)CCC(F)(F)C(F)(F)C(F)(F)C(F)(F)F",
    "Assigned label": "inactive"
  },
  {
    "Compound": "COC(F)(C(F)F)C(F)(F)F (centres undefined)",
    "Assigned label": "inactive"
  },
  {
    "Compound": "FC(F)(F)C(F)(F)C(F)(F)CC1CO1 (centres undefined)",
    "Assigned label": "inactive"
  },
  {
    "Compound": "CCN(CC)c1ccc(N=Nc2ccccc2)cc1",
    "Assigned label": "inactive"
  }
]

###

# Assay comment: ATG_NRF2_ARE_CIS: Attagene CIS-FACTORIAL HepG2 Assay for human Nuclear Factor Erythroid 2 Related Factor 2 (NFR2) response to Antioxidant Response Elements (ARE) (AID 2282992)
# Study conditions: HepG2 Attagene ARE/NRF2 reporter, transcription factor activity; actives raise or lower the signal
The source made the active and inactive calls. How the source made its calls: active means hit-call score of the fitted dose curve at least 0.9, where 1 is the maximum; inactive means score below 0.9.
Outcomes: TRUE = active, FALSE = inactive

[
  {
    "Compound": "C#CC(O)CCC (stereo not given)",
    "Assigned label": "FALSE"
  },
  {
    "Compound": "O=C(c1ccccc1)c1ccc(O)cc1O",
    "Assigned label": "TRUE"
  },
  {
    "Compound": "OCC(O)CC(F)(F)C(F)(F)C(F)(F)C(F)(F)F (stereo not given)",
    "Assigned label": "FALSE"
  },
  {
    "Compound": "CCCCCCCCCCCCC[N+](C)(C)Cc1ccccc1",
    "Assigned label": "TRUE"
  },
  {
    "Compound": "CCCCCCCCCc1ccc(OCCO)cc1",
    "Assigned label": "TRUE"
  }
]

###

# Read-out: Interleukin-8 (IL8), CXCL8 (gene 3576)
# Assay comment: BSK_hDFCGF_IL8: BioMAP Diversity Plus: hDFCGF Assay for Interleukin-8 (IL8) Biomarker Activity (AID 2283058)
# Study conditions: primary human foreskin fibroblasts; actives raise or lower the signal
Active and inactive are the calls of the source. Rule for the calls: active = hit-call score of the fitted dose curve at least 0.9, where 1 is the maximum; inactive = score below 0.9.
Outcomes: active, inactive

[
  {
    "Molecule": "NCC(F)(F)C(F)(F)C(F)(F)C(F)(F)C(F)(F)C(F)(F)F",
    "Assigned label": "inactive"
  },
  {
    "Molecule": "CCN(CC)c1ccc(C=O)c(O)c1",
    "Assigned label": "inactive"
  },
  {
    "Molecule": "Cc1ccc(S(=O)(=O)C(I)I)cc1",
    "Assigned label": "active"
  },
  {
    "Molecule": "O=C(Cl)C(F)(F)C(F)(F)C(F)(F)C(F)(F)C(F)(F)C(F)(F)C(F)(F)F",
    "Assigned label": "inactive"
  },
  {
    "Molecule": "C[C@]12CC[C@H]3C(=CCc4cc(O)ccc43)[C@@H]1CCC2=O",
    "Assigned label": "inactive"
  },
  {
    "Molecule": "OC(O)C(F)(F)C(F)(F)F",
    "Assigned label": "inactive"
  },
  {
    "Molecule": "COC(F)(C(F)F)C(F)(F)F (stereo not drawn)",
    "Assigned label": "inactive"
  },
  {
    "Molecule": "NC(=O)C(F)(F)C(F)(F)C(F)(F)C(F)(F)C(N)=O",
    "Assigned label": "inactive"
  },
  {
    "Molecule": "Cc1cnccn1",
    "Assigned label": "inactive"
  },
  {
    "Molecule": "O=C(O)CCC(F)(F)C(F)(F)C(F)(F)F",
    "Assigned label": "inactive"
  },
  {
    "Molecule": "OCC(F)(F)C(F)(F)C(F)(F)CO",
    "Assigned label": "inactive"
  },
  {
    "Molecule": "FC(F)(F)C(F)(F)C(F)(F)CC1CO1 (stereo not drawn)",
    "Assigned label": "inactive"
  },
  {
    "Molecule": "O=S(=O)(Cl)C(F)(F)C(F)(F)C(F)(F)C(F)(F)C(F)(F)C(F)(F)C(F)(F)C(F)(F)F",
    "Assigned label": "inactive"
  }
]

###

# Read-out: Epidermal growth factor receptor (EGFR), EGFR (gene 1956)
# Assay comment: BSK_hDFCGF_EGFR: BioMAP Diversity Plus: hDFCGF Assay for Epidermal growth factor receptor (EGFR) Biomarker Activity (AID 2283057)
# Study conditions: primary human foreskin fibroblasts; actives raise or lower the signal
Calls of active or inactive are those of the source. How the source made its calls: active means hit-call score of the fitted dose curve at least 0.9, where 1 is the maximum; inactive means score below 0.9.
Measured quantity: AC50

[
  {
    "Compound": "OCC(O)CC(F)(F)C(F)(F)C(F)(F)C(F)(F)F (configuration not stated)",
    "Measured quantity": "AC50",
    "Observed measurement": "inactive"
  },
  {
    "Compound": "Cc1ccc(S(=O)(=O)C(I)I)cc1",
    "Measured quantity": "AC50",
    "Observed measurement": "3.79 µM (active)"
  },
  {
    "Compound": "O=C=NCc1cccc(CN=C=O)c1",
    "Measured quantity": "AC50",
    "Observed measurement": "inactive"
  },
  {
    "Compound": "Nc1cc([N+](=O)[O-])cc(Cl)c1O",
    "Measured quantity": "AC50",
    "Observed measurement": "inactive"
  },
  {
    "Compound": "O=C1c2c(O)ccc(Nc3ccc(CCO)cc3)c2C(=O)c2c([N+](=O)[O-])ccc(O)c21",
    "Measured quantity": "AC50",
    "Observed measurement": "inactive"
  },
  {
    "Compound": "NC(=O)C(F)(F)C(F)(F)C(F)(F)C(F)F",
    "Measured quantity": "AC50",
    "Observed measurement": "inactive"
  },
  {
    "Compound": "OCC(F)(F)C(F)(F)C(F)(F)C(F)(F)C(F)(F)C(F)(F)CO",
    "Measured quantity": "AC50",
    "Observed measurement": "inactive"
  },
  {
    "Compound": "NCC(F)(F)C(F)(F)C(F)(F)C(F)(F)C(F)(F)C(F)(F)C(F)(F)C(F)(F)F",
    "Measured quantity": "AC50",
    "Observed measurement": "inactive"
  },
  {
    "Compound": "OC(O)C(F)(F)C(F)(F)F",
    "Measured quantity": "AC50",
    "Observed measurement": "inactive"
  },
  {
    "Compound": "Cc1ccc(O)c(-n2nc3ccccc3n2)c1",
    "Measured quantity": "AC50",
    "Observed measurement": "inactive"
  },
  {
    "Compound": "CO[Si](C)(CCC(F)(F)C(F)(F)C(F)(F)C(F)(F)C(F)(F)C(F)(F)F)OC",
    "Measured quantity": "AC50",
    "Observed measurement": "inactive"
  },
  {
    "Compound": "O=S(=O)(Cl)C(F)(F)C(F)(F)C(F)(F)C(F)(F)C(F)(F)C(F)(F)C(F)(F)C(F)(F)F",
    "Measured quantity": "AC50",
    "Observed measurement": "inactive"
  }
]
